# Lookup of reported ED (10% increase of heart rate) keyed by entry
Test system: blood pressure and heart beat rate of rats
Assay: hypotensive activity and heart beat rate, intravenous injection in anesthetized rats
Assay type: in vivo, male wister rats
Settings: Rattus norvegicus, i.v., read-out: H-ED10 (dosage causing a 10% increase of the heart rate)

Please report the recorded ED (10% increase of heart rate) for "CCCC[C@H](C)C[C@H](O)/C=C/[C@H]1[C@H](O)CC(=O)[C@@H]1SCCCCCC(=O)OC" .
0.83 µg/kg

Please report the recorded ED (10% increase of heart rate) for "O=C(CCCCCS[C@H]1C(=O)C[C@@H](O)[C@@H]1/C=C/[C@@H](O)C1CCCCC1)Oc1ccccc1" .
2.6 µg/kg

* * *

Test system: blood pressure and heart beat rate of rats
Experiment: hypotensive activity and heart beat rate, intravenous injection in anesthetized rats
Assay type: in vivo, male wister rats
Conditions: Rattus norvegicus, i.v., read-out: H-ED10 (dosage causing a 10% increase of the heart rate)
# Lookup of reported ED (10% increase of heart rate) keyed by entry

CCCCC[C@H](O)/C=C/[C@H]1[C@H](O)CC(=O)[C@@H]1CCCCCCC(=O)O [PGE1, prostaglandin E1] :: > 10 µg/kg
COC(=O)CCCCCS[C@H]1C(=O)C[C@@H](O)[C@@H]1/C=C/[C@@H](O)C1CCCCC1 :: > 10 µg/kg

Now, please, on to the next molecule.
Please report the recorded ED (10% increase of heart rate) for "O=C(O)CCCCCS[C@H]1C(=O)C[C@@H](O)[C@@H]1/C=C/[C@@H](O)C1CCCCC1" .
2.5 µg/kg
